Numbers sourced from patent US8183262B2.

The following compounds are listed with their measured melting point values.

| Compound | Relation Sign | melting point [°C] |
| --- | --- | --- |
| Cc1cc(-c2ccc(Cl)c(Cl)c2)cc(-c2ccc(N3C=CC=CC3N)s2)n1 (centres unmarked) | = | 180 |
| Cc1cc(-c2ccc(C(F)(F)F)c(C)c2)nc(-n2cnc(-c3ccc(N)nc3)c2)n1 | = | 247.5 |
| Nc1ccc(-c2nc(-c3nc(-c4ccc(Cl)cc4)cc(C(F)(F)F)n3)no2)cn1 | = | 191 |
| Cc1nc(-c2cnc(N)nc2)cn1-c1nc(-c2ccc(C(F)(F)F)cc2)cc(C(F)(F)F)n1 | = | 286.5 |
| Nc1ccc(-c2cccc(-c3nc(-c4ccc(C(F)(F)F)c(OCC(F)(F)F)c4)cc(C(F)(F)F)n3)c2)cn1 | = | 220 |
| Nc1ccc(-c2cnn(-c3nc(-c4ccc(C(F)(F)F)cc4)cc(C(F)(F)F)n3)c2)cn1 | = | 206 |
| Cc1cc(-c2ccc(C(F)(F)F)cc2)cc(-c2ccc(-c3cnc(N)nc3)s2)n1 | > | 250 |

###

| Molecule | melting point |
| --- | --- |
| Cc1cc(-c2ccc(C(F)(F)F)c(C)c2)nc(-c2cccc(-c3cccc(S(N)(=O)=O)c3)c2)n1 [Example 416] | 222.5 °C |
| FC(F)(F)c1cc(-c2ccc(Cl)cc2)nc(-n2ccnc2)n1 [Example 1] | 175 °C |
| NS(=O)(=O)c1cccc(-c2cccc(-c3nc(-c4ccc(C(F)(F)F)c(OCC(F)(F)F)c4)cc(C(F)(F)F)n3)c2)c1 [Example 447] | 188 °C |
| CCc1cc(-c2ccc(C(F)(F)F)cc2)cc(-c2cccc(-c3ccc(N)nc3)c2)n1 [Example 264] | 74 °C |

###

The following molecules are listed with their measured melting point values.

| Smiles Repr | Unit Spec | Relation Sign | melting point |
| --- | --- | --- | --- |
| NS(=O)(=O)c1cccc(-c2cn(-c3cc(-c4ccc(C(F)(F)F)cc4)cc(C(F)(F)F)n3)cn2)c1 | °C | > | 250 |
| Nc1ccc(-c2cn(-c3nc(-c4ccc(C(F)(F)F)c(OCC(F)(F)F)c4)cc(C(F)(F)F)n3)cn2)cn1 | °C | = | 285 |
| Cc1cc(-c2ccc(Cl)c(Cl)c2)cc(-c2cccc(-c3cnc(N)nc3)c2)n1 | °C | = | 188 |
| NS(=O)(=O)c1ccc(-c2cc(-c3nc(-c4ccc(C(F)(F)F)cc4)cc(C(F)(F)F)n3)ccn2)s1 | °C | = | 262 |
| Nc1ccc(-c2noc(-c3nc(-c4ccc(C(F)(F)F)cc4)cc(C(F)F)n3)n2)cn1 | °C | = | 219 |
| Cc1cc(-c2ccc(Cl)cc2)nc(-n2cnc(-c3cccc(S(N)(=O)=O)c3)c2)n1 | °C | = | 275 |
| Cc1cc(-c2ccc(Cl)cc2)nc(-c2ccnc(-c3ccc(S(N)(=O)=O)s3)c2)n1 | °C | = | 232.5 |

###

The following compounds are listed with their measured melting point values.
Readout Type: melting point

| Smiles Repr | Obs Value |
| --- | --- |
| CCOc1cc(-c2cc(C(F)(F)F)nc(-c3nc(-c4cccc(S(N)(=O)=O)c4)no3)n2)ccc1C(F)(F)F | 227 °C |
| Cc1cc(-c2ccc(C(F)(F)F)cc2)cc(-c2ccnc(-c3ccc(S(=O)(=O)NC(C)(C)C)s3)c2)n1 | 225 °C |
| O=S(=O)(NC1CC1)c1cccc(-c2cc(-c3nc(-c4ccc(C(F)(F)F)cc4)cc(C(F)(F)F)n3)ccn2)c1 | 195.5 °C |
| Cc1cc(-c2ccc(C(F)(F)F)cc2)cc(-c2cccc(-c3ccc(S(=O)(=O)NC(C)(C)C)s3)n2)n1 | 227 °C |
| Cc1cc(-c2ccc(C(F)(F)F)cc2)nc(-c2cccc(-c3ccc(N)nc3)c2)n1 | 224 °C |
| Cc1cc(-c2ccc(C(F)(F)F)cc2)nc(-c2ccnc(-c3cccc(S(N)(=O)=O)c3)n2)c1 | > 250 °C |
| NS(=O)(=O)c1ccc(-c2noc(-c3nc(-c4ccc(C(F)(F)F)cc4)cc(C(F)(F)F)n3)n2)cc1 | 302 °C |
| NS(=O)(=O)c1cccc(-c2cn(-c3nc(-c4ccc(F)c(F)c4)cc(C(F)(F)F)n3)cn2)c1 | 241.5 °C |
| NS(=O)(=O)c1ccc(-c2cc(-c3nc(-c4ccc(F)cc4)cc(C(F)(F)F)n3)ccn2)s1 | 282 °C |
| CC(C)(C)NS(=O)(=O)c1cnc(-c2cn(-c3cc(C(F)(F)F)cc(-c4ccc(C(F)(F)F)cc4)n3)cn2)s1 | 236 °C |
| Cc1cc(-c2ccc(Cl)c(Cl)c2)cc(-n2cnc(-c3ccc(N)nc3)c2)n1 | 245 °C |
| Cc1cc(-c2ccc(C(F)(F)F)cc2)cc(-c2cccc(-c3cccc(S(=O)(=O)NCC(F)(F)F)c3)n2)n1 | 198 °C |
| CC(C)(C)NS(=O)(=O)c1ccc(-c2cccc(-c3nc(-c4ccc(Cl)cc4)cc(C(F)(F)F)n3)c2)s1 | 197.5 °C |
| Cc1cc(-c2ccc(C(F)(F)F)cc2)cc(-c2cccc(-c3cccc(S(=O)(=O)NC(C)(C)C)c3)n2)n1 | 183 °C |
| CC(C)(C)NS(=O)(=O)c1ccc(-c2cc(-c3nc(-c4ccc(C(F)(F)F)cc4)cc(C(F)(F)F)n3)ccn2)s1 | 237 °C |
| Cc1cc(-c2ccc(C(F)(F)F)cc2)nc(-c2cccc(-c3cncc(S(N)(=O)=O)c3)c2)c1 | 217 °C |
| Cc1cc(-c2ccc(Cl)c(C)c2)nc(-c2cccc(-c3ccc(S(N)(=O)=O)s3)c2)n1 | 240 °C |
| Nc1ccc(-c2cn(-c3nc(-c4ccc(C(F)(F)F)c(F)c4)cc(C(F)(F)F)n3)cn2)cn1 | 309 °C |
| Cc1cc(-c2ccc(C(F)(F)F)cc2)cc(-c2ccc(-c3ccc(N)nc3)s2)n1 | 196 °C |
| Cc1cc(-c2cc(C(F)(F)F)nc(-c3cccc(-c4ccc(N)nc4)c3)n2)ccc1Cl | 168.5 °C |
| Cc1cc(-c2ccc(C(F)(F)F)cc2)cc(-c2cccc(-c3cccc(S(=O)(=O)N4CC(O)C4)c3)n2)n1 | 205 °C |
| Nc1ccc(-c2cccc(-c3nc(-c4ccc(C(F)(F)F)c(F)c4)cc(C(F)(F)F)n3)c2)cn1 | 212 °C |
| Cc1cc(-c2ccc(C(F)(F)F)cc2)cc(-c2cccc(-c3cccc(S(=O)(=O)N(C)C4CC4)c3)n2)n1 | 157 °C |
| CC(C)(C)NS(=O)(=O)c1ccc(-c2cn(-c3cc(-c4ccc(C(F)(F)F)cc4)cc(C(F)(F)F)n3)cn2)s1 | > 250 °C |
| FC(F)(F)c1ccc(-c2cc(-c3cccc(-c4cccnc4)c3)nc(C3CC3)c2)cc1 | 100 to 104 °C |
| CC(C)(CO)NS(=O)(=O)c1cccc(-c2cc(-c3nc(-c4ccc(C(F)(F)F)cc4)cc(C(F)(F)F)n3)ccn2)c1 | 221 °C |
| Nc1ccc(-c2cn(-c3nc(-c4cccc(Cl)c4)cc(C(F)(F)F)n3)cn2)cn1 | 248 °C |
| NS(=O)(=O)c1ccc(-c2cc(-c3nc(-c4ccc(C(F)(F)F)cc4)cc(C(F)F)n3)ccn2)s1 | 242 °C |
| COc1cc(-c2cc(C)nc(-c3ccnc(-c4cccc(S(N)(=O)=O)c4)c3)c2)ccc1C(F)(F)F | 233 °C (dec.) |

###

The following molecules are listed with their measured melting point values.
Readout Type: melting point (°C)

| Smiles Repr | Readout Type | Obs Value |
| --- | --- | --- |
| Cc1cc(-c2ccc(C(F)(F)F)cc2)cc(-c2nccc(-c3ccc(N)nc3)n2)n1 | melting point | 258 |
| Cc1cc(-c2ccc(C(F)(F)F)cc2)cc(-c2cccc(-c3cccc(S(=O)(=O)NC(=O)C(C)C)c3)n2)n1 | melting point | 190 |
| Nc1ccc(-c2cccc(-c3nc(-c4ccc(C(F)(F)F)cc4)cc(C(F)(F)F)n3)c2)cc1 | melting point | 186 |
| FC(F)(F)c1ccc(-c2cc(C(F)(F)F)nc(-n3ccnc3)n2)cc1 | melting point | 162 |
| NS(=O)(=O)c1ccc(-c2cc(-c3nc(-c4ccc(Cl)c(Cl)c4)cc(C(F)(F)F)n3)ccn2)s1 | melting point | 266 |
| NS(=O)(=O)c1ccc(-c2cccc(-c3nc(-c4ccc(C(F)(F)F)c(F)c4)cc(C(F)(F)F)n3)c2)s1 | melting point | 213.5 |
| CCOc1cc(-c2cc(C(F)(F)F)nc(-c3ccnc(-c4ccc(S(N)(=O)=O)s4)c3)n2)ccc1C(F)(F)F | melting point | 237.5 |
